- experiment: Pharmacokinetics in ICR mice
- Assay type: in vivo
- experimental-context: ICR, mouse, blood; IV, 60 mg/kg, 2 h, mice; read-out: Blood drug concentration
recorded-endpoint: concentration at 2 h (ng/mL)
Reply numerically in ng/mL, unit not repeated.

// query Supply concentration at 2 h value. Item: COc1cc2c(cc1Nc1nc(Nc3ccccc3S(=O)(=O)C(C)C)c3[nH]ccc3n1)N(C(=O)CN(C)C)CC2 [XMU-MP-5]
// result 2910

* * *

- experiment: Pharmacokinetics in ICR mice
- Format: in vivo
- experimental-context: ICR, mouse, blood; IV, 30 mg/kg, 0.5 h, mice; read-out: Blood drug concentration
recorded-endpoint: concentration at 0.5 h

// query Tell me concentration at 0.5 h reported for COc1cc2c(cc1Nc1nc(Nc3ccccc3S(=O)(=O)C(C)C)c3[nH]ccc3n1)N(C(=O)CN(C)C)CC2 [XMU-MP-5]
// result 3870 ng/mL

* * *

- experiment: Pharmacokinetics in ICR mice
- Type: in vivo
- experimental-context: ICR, mouse, blood; IV, 5 mg/kg, 0.25 h, mice; read-out: Blood drug concentration
recorded-endpoint: concentration at 0.25 h

// query Supply concentration at 0.25 h value. Item: COc1cc2c(cc1Nc1nc(Nc3ccccc3S(=O)(=O)C(C)C)c3[nH]ccc3n1)N(C(=O)CN(C)C)CC2 [XMU-MP-5]
// result 2430 ng/mL

* * *

- experiment: Pharmacokinetics in ICR mice
- Format: in vivo
- experimental-context: ICR, mouse, blood; IV, 30 mg/kg, 8 h, mice; read-out: Blood drug concentration
recorded-endpoint: concentration at 8 h (ng/mL)
Unit ng/mL implied. Number only.

// query Give the measured concentration at 8 h for COc1cc2c(cc1Nc1nc(Nc3ccccc3S(=O)(=O)C(C)C)c3[nH]ccc3n1)N(C(=O)CN(C)C)CC2 [XMU-MP-5]
// result 171

* * *

- experiment: Pharmacokinetics in ICR mice
- Type: in vivo
- experimental-context: mouse, plasma; IV, 30 mg/kg, ICR mice
recorded-endpoint: half-life
Answer shape: numeric part, then the unit.

// query Return half-life for the following compound: `COc1cc2c(cc1Nc1nc(Nc3ccccc3S(=O)(=O)C(C)C)c3[nH]ccc3n1)N(C(=O)CN(C)C)CC2`
// result 4.93 h

* * *

- experiment: Pharmacokinetics in ICR mice
- Format: in vivo
- experimental-context: ICR, mouse, blood; IV, 60 mg/kg, 8 h, mice; read-out: Blood drug concentration
recorded-endpoint: concentration at 8 h (ng/mL)
Numeric answer only, unit ng/mL assumed.

// query Assign concentration at 8 h to the following record: COc1cc2c(cc1Nc1nc(Nc3ccccc3S(=O)(=O)C(C)C)c3[nH]ccc3n1)N(C(=O)CN(C)C)CC2 [XMU-MP-5]
// result 555

* * *

- experiment: Pharmacokinetics in ICR mice
- Type: in vivo
- experimental-context: mouse, plasma; IV, 60 mg/kg, ICR mice; read-out: MRT(0-∞)
recorded-endpoint: MRT inf

// query Quote MRT inf reported for COc1cc2c(cc1Nc1nc(Nc3ccccc3S(=O)(=O)C(C)C)c3[nH]ccc3n1)N(C(=O)CN(C)C)CC2 [XMU-MP-5] please.
// result 3.39 h

* * *

- experiment: Pharmacokinetics in ICR mice
- Type: in vivo
- experimental-context: ICR, mouse, blood; IV, 60 mg/kg, 1 h, mice; read-out: Blood drug concentration
recorded-endpoint: concentration at 1 h (ng/mL)
Report the figure in ng/mL without appending any unit label.

// query State its concentration at 1 h for this compound: COc1cc2c(cc1Nc1nc(Nc3ccccc3S(=O)(=O)C(C)C)c3[nH]ccc3n1)N(C(=O)CN(C)C)CC2 [XMU-MP-5]
// result 5430

* * *

- experiment: Pharmacokinetics in ICR mice
- Format: in vivo
- experimental-context: ICR, mouse, blood; IV, 60 mg/kg, 24 h, mice; read-out: Blood drug concentration
recorded-endpoint: concentration at 24 h
# include the unit after the value

// query Answer with the recorded concentration at 24 h of COc1cc2c(cc1Nc1nc(Nc3ccccc3S(=O)(=O)C(C)C)c3[nH]ccc3n1)N(C(=O)CN(C)C)CC2 [XMU-MP-5] only.
// result 29.6 ng/mL

* * *

- experiment: Pharmacokinetics in ICR mice
- Type: in vivo
- experimental-context: ICR, mouse, blood; IV, 5 mg/kg, 0.5 h, mice; read-out: Blood drug concentration
recorded-endpoint: concentration at 0.5 h
In your response, put the unit directly after the numeric value.

// query Report measured concentration at 0.5 h; entry is `COc1cc2c(cc1Nc1nc(Nc3ccccc3S(=O)(=O)C(C)C)c3[nH]ccc3n1)N(C(=O)CN(C)C)CC2`
// result 1530 ng/mL

* * *

- Test system: parental (wild-type) Ba/F3 cells
- experiment: Cell survival assay (MTS)
- Type: cell-based, murine
- experimental-context: Mus musculus, BaF3, 48 h
recorded-endpoint: IC50
Write your answer as a measured quantity: the number, then the unit.

// query For the compound `C[C@@H](Oc1cc(-c2cnn(C3CCNCC3)c2)cnc1N)c1c(Cl)ccc(F)c1Cl` , give its measured IC50 value.
// result 1120 nM

* * *

- experiment: Pharmacokinetics in ICR mice
- Assay type: in vivo
- experimental-context: mouse, plasma; PO, 10 mg/kg, ICR mice
recorded-endpoint: AUC(0-t)
Please answer in the form of a number followed by its unit of measurement.

// query Return reported AUC(0-t). Input compound: `COc1cc2c(cc1Nc1nc(Nc3ccccc3S(=O)(=O)C(C)C)c3[nH]ccc3n1)N(C(=O)CN(C)C)CC2`
// result 1210 ng·h/mL

* * *

- experiment: Pharmacokinetics in ICR mice
- Assay type: in vivo
- experimental-context: mouse, plasma; PO, 10 mg/kg, ICR mice; read-out: F (oral bioavailability)
recorded-endpoint: bioavailability (%)
Numbers only here, please. The scale is %.

// query Find the measured bioavailability of `COc1cc2c(cc1Nc1nc(Nc3ccccc3S(=O)(=O)C(C)C)c3[nH]ccc3n1)N(C(=O)CN(C)C)CC2` and report it.
// result 18.3

* * *

- experiment: Pharmacokinetics in ICR mice
- Type: in vivo
- experimental-context: mouse, plasma; IV, 30 mg/kg, ICR mice; read-out: Vz
recorded-endpoint: Vd (L/kg)
Give just the number in L/kg; leave the unit off.

// query Provide one value: measured Vd of COc1cc2c(cc1Nc1nc(Nc3ccccc3S(=O)(=O)C(C)C)c3[nH]ccc3n1)N(C(=O)CN(C)C)CC2 [XMU-MP-5]
// result 6.7

* * *

- experiment: Pharmacokinetics in ICR mice
- Type: in vivo
- experimental-context: ICR, mouse, blood; IV, 60 mg/kg, 0.25 h, mice; read-out: Blood drug concentration
recorded-endpoint: concentration at 0.25 h (ng/mL)
Write it as a number; the unit ng/mL goes unstated.

// query Quick one: give measured concentration at 0.25 h for `COc1cc2c(cc1Nc1nc(Nc3ccccc3S(=O)(=O)C(C)C)c3[nH]ccc3n1)N(C(=O)CN(C)C)CC2`
// result 7190

* * *

- experiment: Pharmacokinetics in ICR mice
- Assay type: in vivo
- experimental-context: ICR, mouse, blood; IV, 5 mg/kg, 4 h, mice; read-out: Blood drug concentration
recorded-endpoint: concentration at 4 h (ng/mL)
Response body: numeric value in ng/mL, unit text excluded.

// query Entry COc1cc2c(cc1Nc1nc(Nc3ccccc3S(=O)(=O)C(C)C)c3[nH]ccc3n1)N(C(=O)CN(C)C)CC2 [XMU-MP-5] needs its concentration at 4 h filled in; supply it.
// result 72.8

* * *

- experiment: Pharmacokinetics in ICR mice
- Type: in vivo
- experimental-context: ICR, mouse, blood; IV, 5 mg/kg, 8 h, mice; read-out: Blood drug concentration
recorded-endpoint: concentration at 8 h

// query Tell me its concentration at 8 h given `COc1cc2c(cc1Nc1nc(Nc3ccccc3S(=O)(=O)C(C)C)c3[nH]ccc3n1)N(C(=O)CN(C)C)CC2` as the entry.
// result 28.7 ng/mL

* * *

- experiment: Pharmacokinetics in ICR mice
- Assay type: in vivo
- experimental-context: mouse, plasma; IV, 30 mg/kg, ICR mice
recorded-endpoint: clearance (mL/min/kg)
Supply the numeric figure in mL/min/kg, leaving out any unit text.

// query Tell me measured clearance for COc1cc2c(cc1Nc1nc(Nc3ccccc3S(=O)(=O)C(C)C)c3[nH]ccc3n1)N(C(=O)CN(C)C)CC2 [XMU-MP-5] please.
// result 37.8

* * *

- experiment: Pharmacokinetics in ICR mice
- Format: in vivo
- experimental-context: mouse, plasma; PO, 10 mg/kg, ICR mice; read-out: MRT(0-∞)
recorded-endpoint: MRT inf (h)
Write it as a number; the unit h goes unstated.

// query Report MRT inf for `COc1cc2c(cc1Nc1nc(Nc3ccccc3S(=O)(=O)C(C)C)c3[nH]ccc3n1)N(C(=O)CN(C)C)CC2`
// result 3.08

* * *

- experiment: Pharmacokinetics in ICR mice;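 further: drug levels in collected samples measured by LC-MS/MS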
- Type: in vivo
- experimental-context: mouse, plasma; IV, 30 mg/kg, ICR mice; read-out: MRT(0-∞)
recorded-endpoint: MRT inf (h)
Use h as the unit, but write only the number.

// query Dear colleague, please send me the reported MRT inf for `COc1cc2c(cc1Nc1nc(Nc3ccccc3S(=O)(=O)C(C)C)c3[nH]ccc3n1)N(C(=O)CN(C)C)CC2` when you can.
// result 2.95
